B1: FAM189A2 (parent)
chain: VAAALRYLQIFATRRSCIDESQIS

variants of: B1; test: protein stability index of a GFP-peptide fusion (GPS, HEK-293T) (PSI 1-6); higher = more stable; details: c terminus: a fixed tail appended;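 also: lentivirally expressed fusions sorted by FACS into six bins by GFP to DsRed ratio, PSI derived from sequencing read proportions per bin multiplied by bin number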
Documented protein stability index across a set of variants
quantity name: protein stability index

• VAAALRYLQIFDTRRSCIDESQIS [A12D] = 1.97
• VAAALRYCQIFATRRSCIDESQIS [L8C] = 2.81
• VAAALRYLQIFAKRRSCIDESQIS [T13K] = 2.61
• VAAALRYLQIFATGRSCIDESQIS [R14G] = 1.88
• VAAALRYDQIFATRRSCIDESQIS [L8D] = 2.44
• VAAALRYLQIFATRRSCIMESQIS [D19M] = 3.73
